- System: HeLa
- method: Induction of apoptosis in human HeLa cells assessed as viable cells at 10 uM incubated for 24 hrs by Annexin V-PE staining based flow cytometry analysis (reference value: 97.43%)
- Type: functional
- test_settings: read-out: Activity
Lab note: cut-off is 70%. Strictly less in viability at 10 µM is YES. Exactly 70% or more is NO.

Worked cases, answers included:
smiles_code | tested_on | category_label
C=CCCC(=O)OC[C@]12CC[C@@H](C(=C)C)[C@@H]1[C@H]1CC[C@@H]3[C@@]4(C)CC[C@H](O)C(C)(C)[C@@H]4CC[C@@]3(C)[C@]1(C)CC2 | HeLa | YES
C=CCCCCCCCCC(=O)OC[C@]12CC[C@@H](C(=C)C)[C@@H]1[C@H]1CC[C@@H]3[C@@]4(C)CC[C@H](O)C(C)(C)[C@@H]4CC[C@@]3(C)[C@]1(C)CC2 | HeLa | NO
C/C1=C/CCC(=O)OC[C@]23CC[C@@H]1[C@@H]2[C@H]1CC[C@@H]2[C@@]4(C)CC[C@H](O)C(C)(C)[C@@H]4CC[C@@]2(C)[C@]1(C)CC3 | HeLa | YES

Shifting focus to the molecule that follows.
[ask] # TODO verify viability at 10 µM < 70% strictly for this molecule: C=C(C)[C@@H]1CC[C@]2(CO)CC[C@]3(C)[C@H](CC[C@@H]4[C@@]5(C)CC[C@H](O)C(C)(C)[C@@H]5CC[C@]43C)[C@@H]12
[reply] NO

----------
- Tested on: L929
- method: Induction of apoptosis in mouse L929 cells assessed as late apoptotic cells at 10 uM incubated for 24 hrs by Annexin V-PE staining based flow cytometry analysis (reference value: 0.53%)
- Type: functional
property: Activity (%)
Dear colleague, please return just the value in %, with no unit written.

molecule | units_symbol | Activity
C/C1=C/CCC(=O)OC[C@]23CC[C@@H]1[C@@H]2[C@H]1CC[C@@H]2[C@@]4(C)CC[C@H](O)C(C)(C)[C@@H]4CC[C@@]2(C)[C@]1(C)CC3 | % | 72.6
C/C1=C/CCCCCCCCC(=O)OC[C@]23CC[C@@H]1[C@@H]2[C@H]1CC[C@@H]2[C@@]4(C)CC[C@H](O)C(C)(C)[C@@H]4CC[C@@]2(C)[C@]1(C)CC3 | % | 5.04
C=C(C)[C@@H]1CC[C@]2(CO)CC[C@]3(C)[C@H](CC[C@@H]4[C@@]5(C)CC[C@H](O)C(C)(C)[C@@H]5CC[C@]43C)[C@@H]12 [BETULIN] | % | 0.61
C=CCCCCCCCCC(=O)OC[C@]12CC[C@@H](C(=C)C)[C@@H]1[C@H]1CC[C@@H]3[C@@]4(C)CC[C@H](O)C(C)(C)[C@@H]4CC[C@@]3(C)[C@]1(C)CC2 | % | 4.55

Let's switch to this molecule now.
[ask] Recorded Activity for C=CCCC(=O)OC[C@]12CC[C@@H](C(=C)C)[C@@H]1[C@H]1CC[C@@H]3[C@@]4(C)CC[C@H](O)C(C)(C)[C@@H]4CC[C@@]3(C)[C@]1(C)CC2 with L929, please?
[reply] 5.86

----------
- Tested on: L929
- method: Induction of apoptosis in mouse L929 cells assessed as viable cells at 10 uM incubated for 24 hrs by Annexin V-PE staining based flow cytometry analysis (reference value: 98%)
- Type: functional
- test_settings: read-out: Activity
yes (1) if viability at 10 µM is below 80%. no (0) if not; exact matches included in no (0).

Solved entries (count: 3):
molecule | category_label
C=C(C)[C@@H]1CC[C@]2(CO)CC[C@]3(C)[C@H](CC[C@@H]4[C@@]5(C)CC[C@H](O)C(C)(C)[C@@H]5CC[C@]43C)[C@@H]12 [BETULIN] | no (0)
C=CCCC(=O)OC[C@]12CC[C@@H](C(=C)C)[C@@H]1[C@H]1CC[C@@H]3[C@@]4(C)CC[C@H](O)C(C)(C)[C@@H]4CC[C@@]3(C)[C@]1(C)CC2 | no (0)
C/C1=C/CCCCCCCCC(=O)OC[C@]23CC[C@@H]1[C@@H]2[C@H]1CC[C@@H]2[C@@]4(C)CC[C@H](O)C(C)(C)[C@@H]4CC[C@@]2(C)[C@]1(C)CC3 | yes (1)

Attention now turns to another entry.
[ask] Please state whether viability at 10 µM is below 80% for C/C1=C/CCC(=O)OC[C@]23CC[C@@H]1[C@@H]2[C@H]1CC[C@@H]2[C@@]4(C)CC[C@H](O)C(C)(C)[C@@H]4CC[C@@]2(C)[C@]1(C)CC3
[reply] yes (1)

----------
- System: L929
- method: Cytotoxicity against mouse L929 cells assessed as reduction in live cells at 10 uM incubated for 24 hrs by calcein-AM/PI staining based fluorescence microscopic analysis relative to control (reference value: 8.65%)
- Type: toxicity, cell-based
- Set-up: scale not given: the % may be the effect or the level left
- test_settings: l929, 24 h
property: Activity (%)
Hi! Could you send only the number? It should be in %, unit omitted.

Worked cases, Activity given:
smiles_code | tested_on | Activity, %
C=CCCCCCCCCC(=O)OC[C@]12CC[C@@H](C(=C)C)[C@@H]1[C@H]1CC[C@@H]3[C@@]4(C)CC[C@H](O)C(C)(C)[C@@H]4CC[C@@]3(C)[C@]1(C)CC2 | L929 | 4.65
C=CCCC(=O)OC[C@]12CC[C@@H](C(=C)C)[C@@H]1[C@H]1CC[C@@H]3[C@@]4(C)CC[C@H](O)C(C)(C)[C@@H]4CC[C@@]3(C)[C@]1(C)CC2 | L929 | 2.15
C/C1=C/CCCCCCCCC(=O)OC[C@]23CC[C@@H]1[C@@H]2[C@H]1CC[C@@H]2[C@@]4(C)CC[C@H](O)C(C)(C)[C@@H]4CC[C@@]2(C)[C@]1(C)CC3 | L929 | 3.67
C/C1=C/CCC(=O)OC[C@]23CC[C@@H]1[C@@H]2[C@H]1CC[C@@H]2[C@@]4(C)CC[C@H](O)C(C)(C)[C@@H]4CC[C@@]2(C)[C@]1(C)CC3 | L929 | 1.71

// next item, Activity requested
[ask] What Activity value was documented for this molecule, C=C(C)[C@@H]1CC[C@]2(CO)CC[C@]3(C)[C@H](CC[C@@H]4[C@@]5(C)CC[C@H](O)C(C)(C)[C@@H]5CC[C@]43C)[C@@H]12 ?
[reply] 5.19

----------
The following compounds are listed with their measured inhibition at 24 h, 10 µM values.
- method: Cytotoxicity against mouse L929 cells assessed as cell growth inhibition at 10 uM incubated for 24 hrs by CCK-8 assay relative to control
- Type: toxicity, cell-based
- test_settings: read-out: Activity
I'd appreciate it if you wrote the number followed by its unit.

compound | inhibition at 24 h, 10 µM
C=CCCCCCCCCC(=O)OC[C@]12CC[C@@H](C(=C)C)[C@@H]1[C@H]1CC[C@@H]3[C@@]4(C)CC[C@H](O)C(C)(C)[C@@H]4CC[C@@]3(C)[C@]1(C)CC2 | 47%
C=CCCC(=O)OC[C@]12CC[C@@H](C(=C)C)[C@@H]1[C@H]1CC[C@@H]3[C@@]4(C)CC[C@H](O)C(C)(C)[C@@H]4CC[C@@]3(C)[C@]1(C)CC2 | 29%

Here's the next entry for you.
[ask] Give the measured inhibition at 24 h, 10 µM of C=C(C)[C@@H]1CC[C@]2(CO)CC[C@]3(C)[C@H](CC[C@@H]4[C@@]5(C)CC[C@H](O)C(C)(C)[C@@H]5CC[C@]43C)[C@@H]12 [BETULIN] .
[reply] 55%

----------
- Test system: L929
- method: Cytotoxicity against mouse L929 cells assessed as reduction in dead cells at 10 uM incubated for 24 hrs by calcein-AM/PI staining based fluorescence microscopic analysis relative to control (reference value: 0.38%)
- Assay type: toxicity, cell-based
- Parameters: scale not given: the % may be the effect or the level left
- test_settings: l929, 24 h
The entries below are paired with their reported Activity.
I'd appreciate it if you wrote the number followed by its unit.

Guide cases for Activity, answers given:
smiles_code | result_value
C=C(C)[C@@H]1CC[C@]2(CO)CC[C@]3(C)[C@H](CC[C@@H]4[C@@]5(C)CC[C@H](O)C(C)(C)[C@@H]5CC[C@]43C)[C@@H]12 | 0.79%
C=CCCCCCCCCC(=O)OC[C@]12CC[C@@H](C(=C)C)[C@@H]1[C@H]1CC[C@@H]3[C@@]4(C)CC[C@H](O)C(C)(C)[C@@H]4CC[C@@]3(C)[C@]1(C)CC2 | 1.77%
C=CCCC(=O)OC[C@]12CC[C@@H](C(=C)C)[C@@H]1[C@H]1CC[C@@H]3[C@@]4(C)CC[C@H](O)C(C)(C)[C@@H]4CC[C@@]3(C)[C@]1(C)CC2 | 2.83%
C/C1=C/CCC(=O)OC[C@]23CC[C@@H]1[C@@H]2[C@H]1CC[C@@H]2[C@@]4(C)CC[C@H](O)C(C)(C)[C@@H]4CC[C@@]2(C)[C@]1(C)CC3 | 5.76%

[ask] Need Activity, item C/C1=C/CCCCCCCCC(=O)OC[C@]23CC[C@@H]1[C@@H]2[C@H]1CC[C@@H]2[C@@]4(C)CC[C@H](O)C(C)(C)[C@@H]4CC[C@@]2(C)[C@]1(C)CC3
[reply] 2.1%
